Test: self-splicing fitness, log relative to wild type (ln ratio); higher = more splicing; Tetrahymena group I intron in knt gene, E. coli kanamycin selection, DiMSum; sequences stand for … in CUCUCU…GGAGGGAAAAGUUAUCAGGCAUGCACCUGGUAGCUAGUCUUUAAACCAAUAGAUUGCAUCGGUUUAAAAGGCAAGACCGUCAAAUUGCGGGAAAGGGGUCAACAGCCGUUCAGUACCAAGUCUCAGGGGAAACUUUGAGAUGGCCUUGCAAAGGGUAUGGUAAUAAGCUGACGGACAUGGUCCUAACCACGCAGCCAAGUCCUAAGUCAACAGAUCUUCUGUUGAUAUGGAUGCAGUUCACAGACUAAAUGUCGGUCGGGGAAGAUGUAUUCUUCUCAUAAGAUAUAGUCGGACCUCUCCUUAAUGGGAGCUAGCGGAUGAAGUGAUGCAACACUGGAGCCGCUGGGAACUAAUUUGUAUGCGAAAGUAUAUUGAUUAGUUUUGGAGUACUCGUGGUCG;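 also: selection with 25 µg/mL kanamycin versus none on LB agar overnight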
Conditions: 37 °C
Returns the class for an entry based on its self-splicing fitness (ln). Class ranges: I: < -2; II: ≥ -2 and < -0.8; III: ≥ -0.8

Example entries begin here.
{"chain": "AAAAAGCAAUAUUACGAAUU", "class_assignment": "II"}
{"chain": "UUAUAGCAAUAUUACGGCGC", "class_assignment": "III"}

Continue with the sequence presented below.
Dear colleague, I would appreciate it if you could identify the bin for ACCUAGCAAUAUUACGCUGU and reply at your convenience. III

====

Assay: self-splicing fitness, log relative to wild type (ln ratio); higher = more splicing; Tetrahymena group I intron in knt gene, E. coli kanamycin selection, DiMSum; sequences stand for … in CUCUCU…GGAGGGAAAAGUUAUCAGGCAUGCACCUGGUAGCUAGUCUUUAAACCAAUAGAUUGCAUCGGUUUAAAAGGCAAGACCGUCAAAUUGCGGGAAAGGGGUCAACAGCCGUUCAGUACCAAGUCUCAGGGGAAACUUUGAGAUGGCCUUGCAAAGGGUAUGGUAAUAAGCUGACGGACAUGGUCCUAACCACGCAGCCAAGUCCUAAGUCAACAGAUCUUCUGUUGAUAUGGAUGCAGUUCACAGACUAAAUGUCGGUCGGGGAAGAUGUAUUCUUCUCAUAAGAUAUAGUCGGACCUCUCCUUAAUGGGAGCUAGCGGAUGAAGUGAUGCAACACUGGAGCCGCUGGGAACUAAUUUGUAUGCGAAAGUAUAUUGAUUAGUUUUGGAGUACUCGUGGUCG
Details: 30 °C
Lab note: compare self-splicing fitness (ln) against -2. Equal or greater, write Yes. Smaller, write No.

Example entries begin here.
{"chain": "AGCAAGCAAUAUUACGUUGG", "class_assignment": "No"}
{"chain": "GCUUAGCAAUAUUACGGUGA", "class_assignment": "Yes"}
{"chain": "GAUUAGCAAUAUUACGUGUG", "class_assignment": "No"}

Quick check, self-splicing fitness (ln) >= -2? ACGUAGCAAUAUUACGAAGA No

Quick check, self-splicing fitness (ln) >= -2? GCGAAGCAAUAUUACGAAAG No

Quick check, self-splicing fitness (ln) >= -2? CUUCAGCAAUAUUACGUGCA No

Quick check, self-splicing fitness (ln) >= -2? GCGCAGCAAUAUUACGAACU Yes

Quick check, self-splicing fitness (ln) >= -2? CGGGAGCAAUAUUACGUAUC No

Quick check, self-splicing fitness (ln) >= -2? UCUGAGCAAUAUUACGAUCA No

Quick check, self-splicing fitness (ln) >= -2? UCGCAGCAAUAUUACGAGAC No

Quick check, self-splicing fitness (ln) >= -2? GCAGAGCAAUAUUACGCGUC No

Quick check, self-splicing fitness (ln) >= -2? CCUGAGCAAUAUUACGGUAU No

Quick check, self-splicing fitness (ln) >= -2? GGAAAGCAAUAUUACGAUGU Yes

Quick check, self-splicing fitness (ln) >= -2? UUUCAGCAAUAUUACGUCUA Yes

Quick check, self-splicing fitness (ln) >= -2? ACUCAGCAAUAUUACGACGG Yes

Quick check, self-splicing fitness (ln) >= -2? UAGUAGCAAUAUUACGCUGU No

====

Assay: self-splicing fitness, log relative to wild type (ln ratio); higher = more splicing; Tetrahymena group I intron in knt gene, E. coli kanamycin selection, DiMSum; sequences stand for … in CUCUCU…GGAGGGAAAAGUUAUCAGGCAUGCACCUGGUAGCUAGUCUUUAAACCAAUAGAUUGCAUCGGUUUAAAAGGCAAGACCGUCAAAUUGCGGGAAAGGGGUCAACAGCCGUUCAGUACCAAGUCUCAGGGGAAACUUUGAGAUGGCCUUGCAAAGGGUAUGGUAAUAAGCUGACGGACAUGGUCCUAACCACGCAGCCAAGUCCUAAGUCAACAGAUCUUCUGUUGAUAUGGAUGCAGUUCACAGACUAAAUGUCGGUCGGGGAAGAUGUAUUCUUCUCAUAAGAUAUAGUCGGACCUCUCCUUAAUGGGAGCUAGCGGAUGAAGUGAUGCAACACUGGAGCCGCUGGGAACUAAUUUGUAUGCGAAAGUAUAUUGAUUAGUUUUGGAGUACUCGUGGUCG
Conditions: 37 °C
Listed below: self-splicing fitness (ln) values for each entry.
Answer using only a numeral; do not append any unit.

{"chain": "GUUAAGCAAUAUUACGCAGA", "metric_name": "self-splicing fitness (ln)", "measured": -2.85}
{"chain": "CCACAGCAAUAUUACGACGU", "metric_name": "self-splicing fitness (ln)", "measured": -2.52}
{"chain": "CGAAAGCAAUAUUACGGGGA", "metric_name": "self-splicing fitness (ln)", "measured": -1.85}
{"chain": "AUUCAGCAAUAUUACGUUGU", "metric_name": "self-splicing fitness (ln)", "measured": -2.3}
{"chain": "ACAGAGCAAUAUUACGCAGA", "metric_name": "self-splicing fitness (ln)", "measured": -2.25}

Per the record, CAUAAGCAAUAUUACGCUGU has self-splicing fitness (ln) of -1.05

Per the record, UUUGAGCAAUAUUACGAACG has self-splicing fitness (ln) of -0.865

Per the record, GGCCAGCAAUAUUACGAUCA has self-splicing fitness (ln) of -1.53

====

Experiment: self-splicing fitness, log relative to wild type (ln ratio); higher = more splicing; Tetrahymena group I intron in knt gene, E. coli kanamycin selection, DiMSum; sequences stand for … in CUCUCU…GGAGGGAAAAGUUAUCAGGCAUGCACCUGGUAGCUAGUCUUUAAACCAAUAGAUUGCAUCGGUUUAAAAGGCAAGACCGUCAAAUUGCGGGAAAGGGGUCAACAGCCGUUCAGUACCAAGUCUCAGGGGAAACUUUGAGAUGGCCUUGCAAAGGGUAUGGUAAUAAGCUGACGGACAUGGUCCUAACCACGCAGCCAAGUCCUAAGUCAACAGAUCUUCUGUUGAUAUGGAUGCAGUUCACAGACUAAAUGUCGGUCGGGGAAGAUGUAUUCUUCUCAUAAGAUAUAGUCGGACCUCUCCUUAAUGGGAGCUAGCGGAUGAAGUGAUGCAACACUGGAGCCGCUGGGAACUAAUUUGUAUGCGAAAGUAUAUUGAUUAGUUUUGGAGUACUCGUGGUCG
Settings: 37 °C
metric_name: self-splicing fitness (ln)
Answer using only a numeral; do not append any unit.

Use the examples below as a reference point.
{"chain": "AUCAAGCAAUAUUACGUCAU", "self-splicing fitness (ln)": -1.45}
{"chain": "UUCAAGCAAUAUUACGGCGC", "self-splicing fitness (ln)": -1.47}
{"chain": "GACGAGCAAUAUUACGGAUG", "self-splicing fitness (ln)": -1.12}
{"chain": "UCACAGCAAUAUUACGUCAC", "self-splicing fitness (ln)": -1.64}
{"chain": "AUUGAGCAAUAUUACGAUAG", "self-splicing fitness (ln)": -3.03}

Per the record, GGGGAGCAAUAUUACGACGC has self-splicing fitness (ln) of 0.117

Per the record, CUAAAGCAAUAUUACGAUUC has self-splicing fitness (ln) of -3.73

Per the record, UGUGAGCAAUAUUACGCGCU has self-splicing fitness (ln) of -3.1

====

Test: self-splicing fitness, log relative to wild type (ln ratio); higher = more splicing; Tetrahymena group I intron in knt gene, E. coli kanamycin selection, DiMSum; sequences stand for … in CUCUCU…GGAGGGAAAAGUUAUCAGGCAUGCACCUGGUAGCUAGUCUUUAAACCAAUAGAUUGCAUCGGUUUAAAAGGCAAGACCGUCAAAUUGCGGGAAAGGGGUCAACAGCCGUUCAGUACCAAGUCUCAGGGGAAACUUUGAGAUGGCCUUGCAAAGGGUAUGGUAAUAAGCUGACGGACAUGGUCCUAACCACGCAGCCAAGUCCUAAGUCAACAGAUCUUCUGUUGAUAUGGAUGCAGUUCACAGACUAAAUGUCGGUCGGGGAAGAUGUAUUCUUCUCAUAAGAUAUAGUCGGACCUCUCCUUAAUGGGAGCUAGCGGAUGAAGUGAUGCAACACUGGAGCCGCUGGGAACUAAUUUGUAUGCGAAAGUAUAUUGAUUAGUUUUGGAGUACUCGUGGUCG
Details: 37 °C
Listed below: self-splicing fitness (ln) values for each entry.

Use the examples below as a reference point.
{"chain": "GCCUAGCAAUAUUACGAUAC", "self-splicing fitness (ln)": -0.543}
{"chain": "AACAAGCAAUAUUACGAAUU", "self-splicing fitness (ln)": -0.666}
{"chain": "CUAUAGCAAUAUUACGGAUU", "self-splicing fitness (ln)": -2.29}

Per the record, AUGAAGCAAUAUUACGGGCG has self-splicing fitness (ln) of 0.118

Per the record, ACGUAGCAAUAUUACGUGGC has self-splicing fitness (ln) of -2.98

Per the record, AGAAAGCAAUAUUACGCGCU has self-splicing fitness (ln) of -1.26

Per the record, AUCUAGCAAUAUUACGUGGG has self-splicing fitness (ln) of -2.42

Per the record, GUGCAGCAAUAUUACGCAUG has self-splicing fitness (ln) of -0.586

Per the record, CGAUAGCAAUAUUACGGAUC has self-splicing fitness (ln) of -2.6

Per the record, CUGUAGCAAUAUUACGAGGU has self-splicing fitness (ln) of -2.42

Just for reference, the supplement of paper PMC7877785 is where these values come from.
